Parameter: IC50. Scope: all listed entries.
- experimentalSystem: Neurotensin receptor type 1 (Homo sapiens, UniProt P30989)
- Sequence (P30989 whole entry): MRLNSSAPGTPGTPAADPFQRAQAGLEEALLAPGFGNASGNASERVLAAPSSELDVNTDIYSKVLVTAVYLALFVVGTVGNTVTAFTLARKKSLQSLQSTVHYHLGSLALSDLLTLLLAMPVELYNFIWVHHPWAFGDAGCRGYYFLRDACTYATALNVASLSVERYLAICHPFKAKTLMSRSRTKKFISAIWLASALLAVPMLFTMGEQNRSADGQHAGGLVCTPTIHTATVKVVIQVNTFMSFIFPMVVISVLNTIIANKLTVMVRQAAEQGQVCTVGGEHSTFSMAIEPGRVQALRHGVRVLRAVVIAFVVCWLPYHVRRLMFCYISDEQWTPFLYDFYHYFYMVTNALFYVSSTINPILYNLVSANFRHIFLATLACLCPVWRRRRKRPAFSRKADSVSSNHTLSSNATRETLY
- assayOverview: Binding affinity towards neurotensin receptor in membranes prepared from HT-29 cell line, relative to [111In]-labeled neurotensin peptide
- details: ht-29
Where a SMILES comes first, the peptide text is derived from it. [ ]: non-standard residue; d: D form. The star is where a group is joined. Gly(1-amidinopiperidin-4-yl) = N=C(N)N1CCC([C@H](N)C(=O)O)CC1; Ala(1-amidino-4-piperidyl) = N=C(N)N1CCC(C[C@H](N)C(=O)O)CC1; DTPA = O=C(O)CN(CCN(CC(=O)O)CC(=O)O)CCN(CC(=O)O)CC(=O)*; Tle = CC(C)(C)[C@H](N)C(=O)O

- compound: "CC(C)C[C@H](NC(=O)[C@@H](NC(=O)[C@@H](Cc1ccc(O)cc1)NC(=O)[C@@H]1CCCN1C(=O)[C@H](CCCN=C(N)N)NC(=O)[C@@H](NC(=O)[C@@H]1CCCN1C(=O)[C@@H](CCCCN)NC(=O)CN(CCN(CCN(CC(=O)O)CC(=O)O)CC(=O)O)CC(=O)O)C1CCN(C(=N)N)CC1)C(C)(C)C)C(=O)O"
  valueUnit: "nM"
  inequalityOperator: "="
  IC50: 0.6
- compound: "CC(C)C[C@H](NC(=O)[C@@H](NC(=O)[C@H](Cc1cccc(O)c1)NC(=O)[C@@H]1CCCN1C(=O)[C@H](CCCN=C(N)N)NC(=O)[C@@H](NC(=O)[C@@H]1CCCN1C(=O)[C@@H](CCCCN)NC(=O)CN(CCN(CCN(CC(=O)O)CC(=O)O)CC(=O)O)CC(=O)O)C1CCN(C(=N)N)CC1)C(C)(C)C)C(=O)O"
  valueUnit: "nM"
  inequalityOperator: "="
  IC50: 106
- compound: "CC(C)C[C@H](NC(=O)[C@@H](NC(=O)[C@H](Cc1ccc(O)cc1)NC(=O)[C@@H]1CCCN1C(=O)[C@@H](NC(=O)[C@@H](NC(=O)[C@@H]1CCCN1C(=O)[C@@H](CCCCN)NC(=O)CN(CCN(CCN(CC(=O)O)CC(=O)O)CC(=O)O)CC(=O)O)C1CCN(C(=N)N)CC1)C1CCNCC1)C(C)(C)C)C(=O)O"
  valueUnit: "nM"
  inequalityOperator: "="
  IC50: 59.6
- compound: "CC[C@H](C)[C@H](NC(=O)[C@H](Cc1ccc(O)cc1)NC(=O)[C@@H]1CCCN1C(=O)[C@H](CCCN=C(N)N)NC(=O)[C@H](CCc1ccnc(N)n1)NC(=O)[C@@H]1CCCN1C(=O)[C@@H](CCCCN)NC(=O)CN(CCN(CCN(CC(=O)O)CC(=O)O)CC(=O)O)CC(=O)O)C(=O)N[C@@H](CC(C)C)C(=O)O"
  valueUnit: "nM"
  inequalityOperator: "="
  IC50: 10.2
- compound: "CC(C)C[C@H](NC(=O)[C@@H](NC(=O)[C@H](Cc1ccc(O)cc1)NC(=O)[C@@H]1CCCN1C(=O)[C@H](CCCN=C(N)N)NC(=O)[C@@H](NC(=O)[C@@H]1CCCN1C(=O)[C@@H](CCCCN)NC(=O)CN(CCN(CCN(CC(=O)O)CC(=O)O)CC(=O)O)CC(=O)O)C1CCN(C(=N)N)CC1)C(C)(C)C)C(=O)O"
  valueUnit: "nM"
  inequalityOperator: "="
  IC50: 0.4
- compound: "CC[C@H](C)[C@H](NC(=O)[C@H](Cc1ccc(O)cc1)NC(=O)[C@@H]1CCCN1C(=O)[C@H](CCCNC(=N)N)NC(=O)[C@@H](NC(=O)[C@@H]1CCCN1C(=O)[C@@H](CCCCN)NC(=S)Nc1ccc2c(c1)C(=O)OC21c2ccc(O)cc2Oc2cc(O)ccc21)C1CCN(C(=N)N)CC1)C(=O)N[C@@H](CC(C)C)C(=O)O"
  valueUnit: "nM"
  inequalityOperator: "="
  IC50: 1.2
- compound: "CC(C)C[C@H](NC(=O)[C@@H](NC(=O)[C@H](Cc1ccc(O)cc1)NC(=O)[C@@H]1CCCN1C(=O)[C@H](CCCNC(=N)N)NC(=O)[C@@H](NC(=O)[C@@H]1CCCN1C(=O)[C@H](CC1CCN(C(=N)N)CC1)NC(=O)CN(CCN(CCN(CC(=O)O)CC(=O)O)CC(=O)O)CC(=O)O)C1CCN(C(=N)N)CC1)C(C)(C)C)C(=O)O ({DTPA}-[Ala(1-amidino-4-piperidyl)]P[Gly(1-amidinopiperidin-4-yl)]RPY[Tle]L-OH)"
  valueUnit: "nM"
  inequalityOperator: ">"
  IC50: 1000
